src = the supplement of paper PMC3334620

molecular target: Hap1 (UniProt P0CE41); assay: PBM E-score (8-mer binding enrichment) (E-score (-0.5 to 0.5)); higher = stronger / more preferred TF binding; conditions: protein concentration: 200 nM; construct: GST-DNA-binding domain
Sequence (P0CE41 whole entry, the tested form may be a part): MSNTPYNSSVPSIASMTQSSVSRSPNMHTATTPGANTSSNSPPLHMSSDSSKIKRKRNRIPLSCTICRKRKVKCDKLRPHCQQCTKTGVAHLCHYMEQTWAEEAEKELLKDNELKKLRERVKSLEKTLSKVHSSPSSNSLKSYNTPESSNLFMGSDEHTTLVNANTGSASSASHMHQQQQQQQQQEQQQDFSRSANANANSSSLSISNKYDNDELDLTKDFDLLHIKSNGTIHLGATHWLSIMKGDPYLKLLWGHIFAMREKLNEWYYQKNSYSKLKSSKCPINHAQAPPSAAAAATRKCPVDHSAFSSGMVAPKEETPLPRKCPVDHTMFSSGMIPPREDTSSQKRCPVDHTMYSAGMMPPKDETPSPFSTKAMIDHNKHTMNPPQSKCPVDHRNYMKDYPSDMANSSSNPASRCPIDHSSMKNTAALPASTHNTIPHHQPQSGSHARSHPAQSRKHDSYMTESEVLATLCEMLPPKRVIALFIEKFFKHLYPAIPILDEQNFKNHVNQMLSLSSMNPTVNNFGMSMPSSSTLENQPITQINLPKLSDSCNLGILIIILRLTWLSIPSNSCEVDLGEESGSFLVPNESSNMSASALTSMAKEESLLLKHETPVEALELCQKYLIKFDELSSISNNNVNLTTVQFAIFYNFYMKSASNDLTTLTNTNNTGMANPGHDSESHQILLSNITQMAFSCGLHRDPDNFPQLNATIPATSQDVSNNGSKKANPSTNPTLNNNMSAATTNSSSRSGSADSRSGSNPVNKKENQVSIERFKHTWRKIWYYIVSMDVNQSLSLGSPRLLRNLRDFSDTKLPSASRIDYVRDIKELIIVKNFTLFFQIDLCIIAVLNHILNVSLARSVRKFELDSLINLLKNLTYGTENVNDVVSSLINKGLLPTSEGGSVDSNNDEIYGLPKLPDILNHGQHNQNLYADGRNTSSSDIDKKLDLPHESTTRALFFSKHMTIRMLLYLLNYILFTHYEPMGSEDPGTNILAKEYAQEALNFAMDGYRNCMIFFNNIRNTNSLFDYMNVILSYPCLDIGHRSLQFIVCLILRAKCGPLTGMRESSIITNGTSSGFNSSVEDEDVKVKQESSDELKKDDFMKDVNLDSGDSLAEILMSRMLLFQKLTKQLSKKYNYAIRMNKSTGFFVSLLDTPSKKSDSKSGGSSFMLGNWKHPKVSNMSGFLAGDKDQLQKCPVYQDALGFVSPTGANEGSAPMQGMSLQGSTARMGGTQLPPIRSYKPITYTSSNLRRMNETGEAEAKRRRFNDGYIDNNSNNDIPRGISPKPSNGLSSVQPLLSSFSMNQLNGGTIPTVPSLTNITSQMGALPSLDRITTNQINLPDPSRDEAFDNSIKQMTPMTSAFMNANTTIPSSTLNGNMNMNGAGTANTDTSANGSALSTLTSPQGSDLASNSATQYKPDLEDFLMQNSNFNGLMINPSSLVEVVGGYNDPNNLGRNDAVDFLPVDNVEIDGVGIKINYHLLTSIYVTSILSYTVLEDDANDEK
Over roughly 33,000 sequences, “E-score (-0.5 to 0.5)” has its median near -0.053; the highest 2% begin near 0.37. For the sample, the highest values were picked, then their nearest neighbours and some sequences at random.
parameter.measured: PBM E-score

record.sequence: GTCCACAC
measured.target: Hap1 (UniProt P0CE41)
recorded.value: 0.0984
//
record.sequence: ATAACGGC
measured.target: Hap1 (UniProt P0CE41)
recorded.value: 0.355
//
record.sequence: GACCCGGA
measured.target: Hap1 (UniProt P0CE41)
recorded.value: 0.353
//
record.sequence: ATTGGTTA
measured.target: Hap1 (UniProt P0CE41)
recorded.value: -0.094
//
record.sequence: AAACAGCC
measured.target: Hap1 (UniProt P0CE41)
recorded.value: -0.0624
//
record.sequence: ACTTCTAG
measured.target: Hap1 (UniProt P0CE41)
recorded.value: -0.146
//
record.sequence: GGCCGCGA
measured.target: Hap1 (UniProt P0CE41)
recorded.value: 0.0621
//
record.sequence: AGATCACG
measured.target: Hap1 (UniProt P0CE41)
recorded.value: -0.113
//
record.sequence: ATCTGCGC
measured.target: Hap1 (UniProt P0CE41)
recorded.value: 0.00257
//
record.sequence: ATCACGGA
measured.target: Hap1 (UniProt P0CE41)
recorded.value: 0.352
//
record.sequence: ACTCGTCG
measured.target: Hap1 (UniProt P0CE41)
recorded.value: -0.172
//
record.sequence: TCACTTAA
measured.target: Hap1 (UniProt P0CE41)
recorded.value: -0.167
//
record.sequence: ATACTTCC
measured.target: Hap1 (UniProt P0CE41)
recorded.value: 0.162
//
record.sequence: AAAAGGTT
measured.target: Hap1 (UniProt P0CE41)
recorded.value: -0.211
//
record.sequence: CGGGGGTA
measured.target: Hap1 (UniProt P0CE41)
recorded.value: 0.425
//
record.sequence: GAAACGGA
measured.target: Hap1 (UniProt P0CE41)
recorded.value: 0.277
//
record.sequence: ACACTCAG
measured.target: Hap1 (UniProt P0CE41)
recorded.value: -0.208
//
record.sequence: CCGACCGA
measured.target: Hap1 (UniProt P0CE41)
recorded.value: 0.422
//
record.sequence: AGTTTGAG
measured.target: Hap1 (UniProt P0CE41)
recorded.value: -0.0293
//
record.sequence: ACGCGAAA
measured.target: Hap1 (UniProt P0CE41)
recorded.value: -0.00838
//
record.sequence: ACGGGTTA
measured.target: Hap1 (UniProt P0CE41)
recorded.value: 0.0135
//
record.sequence: AATGCCGT
measured.target: Hap1 (UniProt P0CE41)
recorded.value: 0.334
//
record.sequence: CCGACCGC
measured.target: Hap1 (UniProt P0CE41)
recorded.value: 0.181
//
record.sequence: ACGCCTCC
measured.target: Hap1 (UniProt P0CE41)
recorded.value: 0.00213
//
record.sequence: CGGACCGA
measured.target: Hap1 (UniProt P0CE41)
recorded.value: 0.423
//
record.sequence: GGGACCTA
measured.target: Hap1 (UniProt P0CE41)
recorded.value: 0.116
//
record.sequence: ATCGGCAC
measured.target: Hap1 (UniProt P0CE41)
recorded.value: 0.315
//
record.sequence: CTACATGA
measured.target: Hap1 (UniProt P0CE41)
recorded.value: -0.187
//
record.sequence: ACATGGAC
measured.target: Hap1 (UniProt P0CE41)
recorded.value: -0.143
//
record.sequence: GCGATTCC
measured.target: Hap1 (UniProt P0CE41)
recorded.value: 0.211
//
record.sequence: ATCACCGC
measured.target: Hap1 (UniProt P0CE41)
recorded.value: 0.234
//
record.sequence: CAGATACG
measured.target: Hap1 (UniProt P0CE41)
recorded.value: 0.0074
//
record.sequence: ACCTGCTG
measured.target: Hap1 (UniProt P0CE41)
recorded.value: -0.058
//
record.sequence: AACGGTAG
measured.target: Hap1 (UniProt P0CE41)
recorded.value: -0.00937
//
record.sequence: ACGATACG
measured.target: Hap1 (UniProt P0CE41)
recorded.value: -0.263
//
record.sequence: GCCTGCTA
measured.target: Hap1 (UniProt P0CE41)
recorded.value: -0.152
//
record.sequence: GAGCGATC
measured.target: Hap1 (UniProt P0CE41)
recorded.value: 0.0915
//
record.sequence: TCCCCGCA
measured.target: Hap1 (UniProt P0CE41)
recorded.value: 0.303
//
record.sequence: AAAGCGGG
measured.target: Hap1 (UniProt P0CE41)
recorded.value: -0.0186
//
record.sequence: GGGCGGAC
measured.target: Hap1 (UniProt P0CE41)
recorded.value: 0.279
//
record.sequence: CGCCGCGA
measured.target: Hap1 (UniProt P0CE41)
recorded.value: 0.213
//
record.sequence: GTAACGGA
measured.target: Hap1 (UniProt P0CE41)
recorded.value: 0.401
//
record.sequence: ATCCGAGC
measured.target: Hap1 (UniProt P0CE41)
recorded.value: 0.356
//
record.sequence: AGGGCTAA
measured.target: Hap1 (UniProt P0CE41)
recorded.value: -0.2
//
record.sequence: GTGTGTGA
measured.target: Hap1 (UniProt P0CE41)
recorded.value: -0.201
//
record.sequence: CGGACCGC
measured.target: Hap1 (UniProt P0CE41)
recorded.value: 0.367
//
record.sequence: ATAACGGA
measured.target: Hap1 (UniProt P0CE41)
recorded.value: 0.414
//
record.sequence: ATCCGACG
measured.target: Hap1 (UniProt P0CE41)
recorded.value: 0.333
//
record.sequence: CGACCACG
measured.target: Hap1 (UniProt P0CE41)
recorded.value: 0.0929
//
record.sequence: AGGCTGTG
measured.target: Hap1 (UniProt P0CE41)
recorded.value: -0.019
//
record.sequence: CAAACGGA
measured.target: Hap1 (UniProt P0CE41)
recorded.value: 0.324
//
record.sequence: CCGGGTTC
measured.target: Hap1 (UniProt P0CE41)
recorded.value: 0.296
//
record.sequence: CTCACCGA
measured.target: Hap1 (UniProt P0CE41)
recorded.value: 0.157
//
record.sequence: ATAGTAGC
measured.target: Hap1 (UniProt P0CE41)
recorded.value: 0.0136
//
record.sequence: CGCCGAGA
measured.target: Hap1 (UniProt P0CE41)
recorded.value: 0.37
//
record.sequence: CCGATTCC
measured.target: Hap1 (UniProt P0CE41)
recorded.value: 0.405
//
record.sequence: GAAACCTC
measured.target: Hap1 (UniProt P0CE41)
recorded.value: -0.00121
//
record.sequence: TCAAAAGA
measured.target: Hap1 (UniProt P0CE41)
recorded.value: -0.152
//
record.sequence: CCCGCACC
measured.target: Hap1 (UniProt P0CE41)
recorded.value: 0.151
//
record.sequence: GGCCGAGA
measured.target: Hap1 (UniProt P0CE41)
recorded.value: 0.401
//
record.sequence: CCGATTCG
measured.target: Hap1 (UniProt P0CE41)
recorded.value: 0.347
//
record.sequence: CCCCGAGA
measured.target: Hap1 (UniProt P0CE41)
recorded.value: 0.319
//
record.sequence: CGGCGGAC
measured.target: Hap1 (UniProt P0CE41)
recorded.value: 0.38
//
record.sequence: TGCGAGAA
measured.target: Hap1 (UniProt P0CE41)
recorded.value: -0.143
//
record.sequence: TACCCGGA
measured.target: Hap1 (UniProt P0CE41)
recorded.value: 0.38
//
record.sequence: ATTGCCGC
measured.target: Hap1 (UniProt P0CE41)
recorded.value: 0.0752
//
record.sequence: GGGGGGTA
measured.target: Hap1 (UniProt P0CE41)
recorded.value: 0.047
//
record.sequence: AGGGGTTA
measured.target: Hap1 (UniProt P0CE41)
recorded.value: -0.0702
//
record.sequence: GGAACACA
measured.target: Hap1 (UniProt P0CE41)
recorded.value: -0.109
//
record.sequence: GTAACGCA
measured.target: Hap1 (UniProt P0CE41)
recorded.value: 0.0607
//
record.sequence: ACGACCGG
measured.target: Hap1 (UniProt P0CE41)
recorded.value: 0.292
//
record.sequence: CCCGCAAC
measured.target: Hap1 (UniProt P0CE41)
recorded.value: 0.277
//
record.sequence: CCGGGGTA
measured.target: Hap1 (UniProt P0CE41)
recorded.value: 0.301
//
record.sequence: TCCCCGGA
measured.target: Hap1 (UniProt P0CE41)
recorded.value: 0.377
//
record.sequence: CGCCCGGA
measured.target: Hap1 (UniProt P0CE41)
recorded.value: 0.4
//
record.sequence: ACTAGTCA
measured.target: Hap1 (UniProt P0CE41)
recorded.value: -0.241
//
record.sequence: ACCGTGAA
measured.target: Hap1 (UniProt P0CE41)
recorded.value: 0.126
//
record.sequence: CTAGAGAA
measured.target: Hap1 (UniProt P0CE41)
recorded.value: -0.207
//
record.sequence: GGGACCGA
measured.target: Hap1 (UniProt P0CE41)
recorded.value: 0.329
//
record.sequence: CGCCGAGC
measured.target: Hap1 (UniProt P0CE41)
recorded.value: 0.364
//
record.sequence: AGGCGGAC
measured.target: Hap1 (UniProt P0CE41)
recorded.value: 0.288
//
record.sequence: GCGACCGA
measured.target: Hap1 (UniProt P0CE41)
recorded.value: 0.253
//
record.sequence: ATCACCGA
measured.target: Hap1 (UniProt P0CE41)
recorded.value: 0.417
//
record.sequence: TTACCGAA
measured.target: Hap1 (UniProt P0CE41)
recorded.value: 0.233
//
record.sequence: ATCACCTG
measured.target: Hap1 (UniProt P0CE41)
recorded.value: -0.158
//
record.sequence: CATGCCGA
measured.target: Hap1 (UniProt P0CE41)
recorded.value: 0.17
//
record.sequence: GTCACGGA
measured.target: Hap1 (UniProt P0CE41)
recorded.value: 0.371
//
record.sequence: CCGGGTTA
measured.target: Hap1 (UniProt P0CE41)
recorded.value: 0.37
